molecular target: Carnitine O-palmitoyltransferase 1, muscle isoform (Homo sapiens); assay: SUPPLEMENTARY: Inhibition of Carnitine palmitoyltransferase 1, muscle isoform
Sequence (Q92523 whole entry, canonical isoform): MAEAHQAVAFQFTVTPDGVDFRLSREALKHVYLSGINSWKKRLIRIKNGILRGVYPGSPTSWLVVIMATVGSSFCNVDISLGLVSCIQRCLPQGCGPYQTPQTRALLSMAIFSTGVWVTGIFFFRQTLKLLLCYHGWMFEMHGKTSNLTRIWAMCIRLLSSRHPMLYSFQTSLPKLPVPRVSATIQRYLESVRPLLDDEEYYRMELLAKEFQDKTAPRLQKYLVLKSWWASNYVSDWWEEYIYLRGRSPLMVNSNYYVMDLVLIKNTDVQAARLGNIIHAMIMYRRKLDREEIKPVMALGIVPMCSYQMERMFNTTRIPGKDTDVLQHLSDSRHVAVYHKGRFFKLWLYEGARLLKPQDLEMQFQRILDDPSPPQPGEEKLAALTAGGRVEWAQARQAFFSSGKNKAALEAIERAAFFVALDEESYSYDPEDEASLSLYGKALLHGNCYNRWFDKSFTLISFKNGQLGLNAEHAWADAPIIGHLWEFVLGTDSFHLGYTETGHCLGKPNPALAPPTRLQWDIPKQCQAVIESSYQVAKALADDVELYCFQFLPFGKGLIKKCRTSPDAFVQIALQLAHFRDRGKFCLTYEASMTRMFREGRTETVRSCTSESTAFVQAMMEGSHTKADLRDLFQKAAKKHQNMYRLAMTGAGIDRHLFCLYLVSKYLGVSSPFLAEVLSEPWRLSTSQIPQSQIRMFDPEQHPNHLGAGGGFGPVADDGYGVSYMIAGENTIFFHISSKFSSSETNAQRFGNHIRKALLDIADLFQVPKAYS
reported.property: IC50 (µM)

Input: For COc1ccc(Cl)cc1S(=O)(=O)N1CCOc2c(F)cc(C(=O)Nc3ccc(C(=O)O)c(Cl)c3)cc21 , what is its reported IC50?
Output: 5.11

1. COc1ccc(Cl)cc1S(=O)(=O)N1COc2c(OC)cc(C(=O)Nc3ccc(C(=O)O)cc3)cc21
2. COc1ccc(Cl)cc1S(=O)(=O)N1C[C@@H](C)c2ccc(C(=O)Nc3ccc(C(=O)O)cc3)cc21
3. O=C(O)COc1cccc(-c2noc([C@H]3CCCCN3C(=O)COc3ccccc3)n2)c1
Input: Rank entries according to their IC50, from the largest number down. Sort the labels as requested; that list is your answer.
Output: 3, 1, 2
(3: 45.9 µM, 1: 29 µM, 2: 6.78 µM)

Just for reference, ChEMBL document CHEMBL3431459 is where these values come from.
